As shown below, each of these binders has a reported koff value.
measured_on: T1, human IL-6 (human, UniProt P05231 30-212)
T1 construct: IL-6 flowed over captured antibodies
experimental_details: SPR Biacore, supernatant Ab on Protein A chip, 37 C

>  <binder>
anti-IL-6 antibody, heavy chain S35H, G66D / light chain M32L, M50D, N52S, M88Q (antibody, IgG1, V domains shown, Full IgG1 (Expi293); VL = variant III) VH: EVQLVESGGGLVQPGGSLRLSCAASGFTFSPFAMHWVRQAPGKGLEWVAKISPGGSWTYYSDTVTDRFTFSLDTSKSTAYLQMNSLRAEDTAVYYCARQLWGYYALDIWGQGTLVTVSS VL: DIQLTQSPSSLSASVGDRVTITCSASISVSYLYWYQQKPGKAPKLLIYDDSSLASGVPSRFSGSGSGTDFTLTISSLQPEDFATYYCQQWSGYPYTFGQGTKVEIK

>  <koff / s⁻¹>
0.000539

$$$$
>  <binder>
anti-IL-6 antibody, heavy chain I51T, G66D / light chain M32L, M50D, N52S, M88Q (antibody, IgG1, V domains shown, Full IgG1 (Expi293); VL = variant III) VH: EVQLVESGGGLVQPGGSLRLSCAASGFTFSPFAMSWVRQAPGKGLEWVAKTSPGGSWTYYSDTVTDRFTFSLDTSKSTAYLQMNSLRAEDTAVYYCARQLWGYYALDIWGQGTLVTVSS VL: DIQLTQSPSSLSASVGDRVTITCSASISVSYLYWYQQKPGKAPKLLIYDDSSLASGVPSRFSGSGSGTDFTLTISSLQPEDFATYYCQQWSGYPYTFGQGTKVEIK

>  <koff / s⁻¹>
0.000478

$$$$
>  <binder>
anti-IL-6 antibody, heavy chain WT / light chain M32L, M50D, N52S, M88Q (antibody, IgG1, V domains shown, Full IgG1 (Expi293); VL = variant III) VH: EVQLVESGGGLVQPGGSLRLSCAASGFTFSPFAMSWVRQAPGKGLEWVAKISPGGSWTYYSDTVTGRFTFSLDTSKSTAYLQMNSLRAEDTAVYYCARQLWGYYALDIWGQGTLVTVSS VL: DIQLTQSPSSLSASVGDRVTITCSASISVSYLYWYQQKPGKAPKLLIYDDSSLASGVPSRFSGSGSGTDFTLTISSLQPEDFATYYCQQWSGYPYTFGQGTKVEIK

>  <koff / s⁻¹>
0.000414

$$$$
